- assayed-target: Apoptotic protease-activating factor 1 (Homo sapiens) (UniProt O14727)
- Sequence (O14727 whole entry, looked up): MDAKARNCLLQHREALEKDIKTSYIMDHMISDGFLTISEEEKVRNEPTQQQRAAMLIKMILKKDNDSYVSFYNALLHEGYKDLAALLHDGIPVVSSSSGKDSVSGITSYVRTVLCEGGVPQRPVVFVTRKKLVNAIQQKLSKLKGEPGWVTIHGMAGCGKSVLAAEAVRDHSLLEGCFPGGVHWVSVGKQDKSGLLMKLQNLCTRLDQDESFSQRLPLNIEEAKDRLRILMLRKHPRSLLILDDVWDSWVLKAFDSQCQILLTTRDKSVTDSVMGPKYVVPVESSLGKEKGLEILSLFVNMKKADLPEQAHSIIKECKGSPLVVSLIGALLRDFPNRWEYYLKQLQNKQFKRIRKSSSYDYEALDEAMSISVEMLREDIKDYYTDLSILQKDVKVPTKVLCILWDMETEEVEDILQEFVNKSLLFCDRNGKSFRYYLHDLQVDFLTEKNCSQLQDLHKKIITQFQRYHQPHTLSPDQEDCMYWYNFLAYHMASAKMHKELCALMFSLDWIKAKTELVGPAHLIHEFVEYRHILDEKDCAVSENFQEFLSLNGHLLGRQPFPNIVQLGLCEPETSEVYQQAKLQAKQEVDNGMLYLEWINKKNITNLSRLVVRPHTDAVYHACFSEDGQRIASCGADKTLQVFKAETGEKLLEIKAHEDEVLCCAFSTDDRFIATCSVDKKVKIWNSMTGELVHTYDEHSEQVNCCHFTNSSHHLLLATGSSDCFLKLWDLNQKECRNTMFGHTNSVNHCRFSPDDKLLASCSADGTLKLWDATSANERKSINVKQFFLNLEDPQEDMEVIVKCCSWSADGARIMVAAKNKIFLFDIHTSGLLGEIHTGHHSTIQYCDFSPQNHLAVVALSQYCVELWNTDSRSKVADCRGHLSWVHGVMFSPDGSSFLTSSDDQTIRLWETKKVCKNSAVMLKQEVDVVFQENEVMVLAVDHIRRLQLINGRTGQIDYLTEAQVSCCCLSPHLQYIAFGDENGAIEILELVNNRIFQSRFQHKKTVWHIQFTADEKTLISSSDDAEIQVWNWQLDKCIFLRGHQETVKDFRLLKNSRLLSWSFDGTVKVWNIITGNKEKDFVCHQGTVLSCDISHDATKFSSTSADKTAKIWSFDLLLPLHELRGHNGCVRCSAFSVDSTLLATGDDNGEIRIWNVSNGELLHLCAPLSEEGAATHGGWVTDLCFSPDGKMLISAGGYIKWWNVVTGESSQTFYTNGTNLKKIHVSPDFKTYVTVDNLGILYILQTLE
- procedure-summary: blockers of Apaf-1-driven caspase-3 activation – biochemical, DEVD-Rh110 fluorescence, uHTS, primary screen (AID 489030);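 note: plate controls were DMSO wells for no effect and DEVD-CHO caspase inhibitor wells for full effect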
- experimental-conditions: reconstituted apoptosome caspase-3 activity, at 20 µM, stronger effect = higher value
In all, about 330,000 compounds went through this assay and about 2,400 (0.73%) were called active. The sample as a whole holds a higher share of actives than the screen did.
parameter: inhibition (%)
Report the figure in % without appending any unit label.

Take a look at these entries with their results.
Input: Quick check: inhibition of Cc1ccc(C)c2c1cc(C)c1nnc(SCC(=O)Nc3cccc(C(=O)O)c3)n12 ?
Output: -9.82

Input: Quick check: inhibition of O=C(N/N=C\c1cc(Br)c(Br)o1)C1COc2ccccc2O1 (centres undefined) ?
Output: 6.95

Input: Quick check: inhibition of CCN(CC(=O)NCc1cccs1)C(=O)c1ccccc1F ?
Output: -6.38

Okay, now this molecule:
Input: Quick check: inhibition of CCN1C(=NCc2ccc(OC)cc2)N[C@@H](CCc2ccccc2)[C@H](C(=O)NCc2ccc(OC)cc2)[C@H]1C ?
Output: 40.4

###

- assayed-target: Apoptotic protease-activating factor 1 (Homo sapiens)
- procedure-summary: blockers of Apaf-1-driven caspase-3 activation – biochemical, DEVD-Rh110 fluorescence, uHTS, primary screen (AID 489030)
- experimental-conditions: reconstituted apoptosome caspase-3 activity, at 20 µM, stronger effect = higher value
Among all 330,000 compounds or so, about 2,400 (0.73%) were called active. The full list was thinned out, with actives kept by preference.
Consider the following compounds and their measured inhibition readings.
Report the figure in % without appending any unit label.

Input: Quick check: inhibition of CC(C)c1ccccc1OCC(O)CN(CC(O)COc1cccc2ccccc12)C(C)C (configuration not stated) ?
Output: 57.3

###

- assayed-target: Apoptotic protease-activating factor 1 (Homo sapiens) (UniProt O14727)
- procedure-summary: blockers of Apaf-1-driven caspase-3 activation – biochemical, DEVD-Rh110 fluorescence, uHTS, primary screen (AID 489030)
- experimental-conditions: reconstituted apoptosome caspase-3 activity, at 20 µM, stronger effect = higher value
The whole screen tested about 330,000 compounds, of which about 2,400 (0.73%) were called active. The entries come from a sample that favours actives as a whole.
parameter: inhibition (%)
Report the figure in % without appending any unit label.

Input: Quick check: inhibition of CC(=O)N1N=C(c2ccncc2)OC1(Cc1ccccc1)Cc1ccccc1 ?
Output: 3.9

Input: Quick check: inhibition of C=CCC[C@H](Cc1ccc(F)cc1)C(=O)OC[C@@H](Cc1c[nH]c2ccccc12)NC(=O)[C@H](CC=C)CC(=O)N[C@H](CO)Cc1ccccc1 ?
Output: 1.18

Input: Quick check: inhibition of C=CC[C@@H](CC(=O)N[C@H](CO)Cc1ccccc1)C(=O)N[C@H](C)COC(=O)[C@@H](CC=C)Cc1ccc(F)cc1 ?
Output: 23

Okay, now this compound:
Input: Quick check: inhibition of C#CCOCCOCCOCCNc1nc(N2CCN(C(=O)[C@H](CCC(=O)O)n3cc(C(N)CO)nn3)CC2)nc(N2CCN(C(=O)[C@H](CCCCN)n3cc(C(N)CC(C)C)nn3)CC2)n1 (some centres undefined) ?
Output: 2.63

###

Consider the following molecules and their measured inhibition readings.
- assayed-target: Apoptotic protease-activating factor 1 (Homo sapiens)
- procedure-summary: blockers of Apaf-1-driven caspase-3 activation – biochemical, DEVD-Rh110 fluorescence, uHTS, primary screen (AID 489030);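 note: plate controls were DMSO wells for no effect and DEVD-CHO caspase inhibitor wells for full effect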
- experimental-conditions: reconstituted apoptosome caspase-3 activity, at 20 µM, stronger effect = higher value
Among all 330,000 compounds or so, about 2,400 (0.73%) were called active. The sample as a whole holds a higher share of actives than the screen did.
Report the figure in % without appending any unit label.

Take a look at these entries with their results.
Input: Quick check: inhibition of CCOc1cc(-c2nc3cc(C)ccn3c2NCC2CCCO2)ccc1O (configuration not stated) ?
Output: 9.28

Input: Quick check: inhibition of COc1ccc(C2/C(=C(/O)c3ccccc3)C(=O)C(=O)N2C)c(OC)c1 (configuration not stated) ?
Output: 2.34

Input: Quick check: inhibition of Cc1ccc(-n2[nH]c(C)c(/C=N/NC(=O)c3cccc([N+](=O)[O-])c3)c2=O)cc1C ?
Output: 25.4

Input: Quick check: inhibition of COC(=O)Cc1csc(/N=C/c2c(O)n(-c3cccc(C(F)(F)F)c3)c(=O)c3ccccc23)n1 ?
Output: -1.6

Input: Quick check: inhibition of CC(C)(C)C(=O)N1CCC[C@@]1(CO)C(=O)O ?
Output: 6.37

Input: Quick check: inhibition of CCOC(=O)c1ccc(NC(=O)c2c(N)n(C)c(=O)[nH]c2=O)cc1 ?
Output: -13.8

Input: Quick check: inhibition of COc1ccc(NC(=O)CN(Cc2ccccc2)S(C)(=O)=O)cc1OC ?
Output: 40.8

Input: Quick check: inhibition of CCOC(=O)c1ccc(NC(=O)c2c(NCc3ccccc3)[nH]c(=O)[nH]c2=O)cc1 ?
Output: 3.08

Continuing:
Input: Quick check: inhibition of O=S1(=O)CCC(NC(=S)SCc2ccccc2Br)C1 (configuration not stated) ?
Output: 8.21

Input: Quick check: inhibition of COc1ccc(NC(=O)CN(C)S(=O)(=O)c2ccccc2)cc1OC ?
Output: -3.33

###

- assayed-target: Apoptotic protease-activating factor 1 (Homo sapiens)
- procedure-summary: blockers of Apaf-1-driven caspase-3 activation – biochemical, DEVD-Rh110 fluorescence, uHTS, primary screen (AID 489030);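 note: plate controls were DMSO wells for no effect and DEVD-CHO caspase inhibitor wells for full effect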
- experimental-conditions: reconstituted apoptosome caspase-3 activity, at 20 µM, stronger effect = higher value
Among all 330,000 compounds or so, about 2,400 (0.73%) were called active. For the sample, actives were picked, then their nearest neighbours and some compounds at random.
parameter: inhibition (%)
Report the figure in % without appending any unit label.

Take a look at these entries with their results.
Input: Quick check: inhibition of Cc1ccc(F)cc1NC(=O)Cc1nn(C)c(=O)c2ccccc12 ?
Output: -8.15

Input: Quick check: inhibition of CCCC[C@@H]1CN=C(N)N1CCc1cccc(F)c1 ?
Output: 4.48

Input: Quick check: inhibition of CCC(=O)NCc1cc(-c2nn(C)c(=O)c3ccccc23)ccc1OC ?
Output: -10.9

Input: Quick check: inhibition of COc1cc(/C=C2/C(=O)NN(c3cccc(Cl)c3)C2=O)cc(Br)c1O ?
Output: 5.53

Input: Quick check: inhibition of Cc1ccc(-c2nc(-c3cccnc3)sc2CC(=O)Nc2ccc(C)c(Cl)c2)cc1 ?
Output: 19

Continuing:
Input: Quick check: inhibition of CCCC[C@@H]1CN=C(N)N1CCCC ?
Output: 8.23

Input: Quick check: inhibition of c1ccc(-n2nc3ccccc3n2)cc1 ?
Output: 2.62

Input: Quick check: inhibition of CCOC(=O)CN1CCC(c2ccccc2)CC1 ?
Output: -14.9

Input: Quick check: inhibition of C=CCOc1c(Br)cc(/C=N\n2nnnc2N)cc1OC ?
Output: 2.56

Input: Quick check: inhibition of O=C(Nc1cc(S(=O)(=O)N2CCOCC2)ccc1N1CCOCC1)c1c(F)cccc1Cl ?
Output: -5.54

Input: Quick check: inhibition of CCCC[C@@H]1CN=C(N)N1CCc1cc(C(F)(F)F)cc(C(F)(F)F)c1 ?
Output: 52.3

Input: Quick check: inhibition of CC1=C(C(=O)OC(C)(C)C)C(c2ccc(Br)cc2)NC(=O)N1CCCC(=O)O (centres undefined) ?
Output: -6.71

Input: Quick check: inhibition of O=C(OCc1ccccc1F)c1ccc2c(c1)OCCO2 ?
Output: 9.05

Input: Quick check: inhibition of CC(C)CNC(=O)/C=C/C(=O)O ?
Output: -2.85

###

- assayed-target: Apoptotic protease-activating factor 1 (Homo sapiens) (UniProt O14727)
- procedure-summary: blockers of Apaf-1-driven caspase-3 activation – biochemical, DEVD-Rh110 fluorescence, uHTS, primary screen (AID 489030);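 note: plate controls were DMSO wells for no effect and DEVD-CHO caspase inhibitor wells for full effect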
- experimental-conditions: reconstituted apoptosome caspase-3 activity, at 20 µM, stronger effect = higher value
The campaign covered roughly 330,000 compounds. About 2,400 (0.73%) were called active. Only a selection was taken, and actives are over-represented in it overall.
Consider the following compounds and their measured inhibition readings.
Report the figure in % without appending any unit label.

Input: Quick check: inhibition of CCCCn1c(N)c(N(CCC(C)C)C(=O)c2ccc([N+](=O)[O-])o2)c(=O)[nH]c1=O ?
Output: 5.92

Input: Quick check: inhibition of O=C(COc1ccccc1[N+](=O)[O-])N/N=C/c1ccc[nH]1 ?
Output: -17.6

Input: Quick check: inhibition of CC(Oc1ccc(Cl)cc1)c1ccnn1S(C)(=O)=O (stereo unspecified) ?
Output: 0.147

Continuing:
Input: Quick check: inhibition of CCOc1ccc(N2CC(C(=O)N/N=C/c3sccc3C)CC2=O)cc1 (stereo unspecified) ?
Output: -13.2

Input: Quick check: inhibition of CC1CN(C(=S)Nc2cccc(F)c2)CC(C)O1 (stereo unspecified) ?
Output: -7.38

Input: Quick check: inhibition of CCOC(=O)N1CCN(C(=O)COCc2cc(-c3ccc4c(c3)OCO4)on2)CC1 ?
Output: 15.6

Input: Quick check: inhibition of O=C(Nc1ccccc1Cl)NC1(C(=O)N2CCOCC2)CCCCC1 ?
Output: -1.88

Input: Quick check: inhibition of Cc1ccsc1/C=N/n1c(=S)[nH]nc(C)c1=O ?
Output: 2.31
